Data provenance is the supplement of paper PMC6607015.

Tested on: HeLa MZ
Test: LBPA endosome anti-LBPA integrated intensity (sum per cell), Z-score; higher = more LBPA staining
Conditions: compound concentration in added solution (µM; 5 µl added to 20 µl cells): 10; 18 h
Where a name gives a salt, the structure may show the parent alone.
Param threshold (0.3) applies to LBPA endosome anti-LBPA integrated intensity (z-score); output 1 when value >= threshold, 0 when value < threshold.

[ask] hey, is LBPA endosome anti-LBPA integrated intensity (z-score) for this one >= 0.3? `Cc1[nH]c(=O)c(C#N)cc1-c1ccncc1`
[reply] 0

[ask] Item: CCOC(=O)[C@H](CCc1ccccc1)N[C@@H](C)C(=O)N1Cc2ccccc2C[C@H]1C(=O)O [Quinapril HCl]
[reply] 0
